# Target or test system: Histone deacetylase
# Assay name: Concentration required to inhibit Histone Deacetylase (HDAC) from K562 erythroleukemia cells
# Format: cell-based, Homo sapiens
Could you mark each record yes (1) if its IC50 falls strictly under 700 nM, and no (0) if it equals or exceeds it?

* CCC[C@H]1C(=O)N([C@@H](Cc2ccc(OC)cc2)C(=O)NCCCCCC(=O)NO)C(=O)[C@@H]1CC(C)C | yes (1)
* O=C(CCCCCNC(=O)[C@H](Cc1ccccc1)N1C(=O)CCC1=O)NO | yes (1)
* CC(C)C[C@H]1CN[C@H](C(=O)NCCCCCC(=O)NO)Cc2ccc(cc2)OCCCCC[C@H]1C(=O)OC(C)(C)C | yes (1)
* CCC[C@H]1C(=O)N([C@@H](Cc2ccccc2)C(=O)NCCCCCC(=O)NO)C(=O)[C@@H]1CC(C)C | yes (1)
* O=C(CCCCCNC(=O)[C@H](Cc1ccccc1)N1CCCC1=O)NO | no (0)
* CNCC(=O)[C@@H](Cc1ccccc1)NC(=O)CCCCCCC(=O)NO | no (0)
* CC(C)C[C@@H]1CC(=O)N(CC(=O)NCCCCCC(=O)NO)C1=O | no (0)

* * *

Measured IC50 accompanies every entry in the list below.
# System: HT-1080
# Assay name: Concentration required for the antiproliferation of Human HT1080 fibrosarcoma cells
# Type: functional, cell-based
Quantity name: IC50 (nM)

* CC(C)C[C@H]1C(=O)N([C@@H](Cc2ccccc2)C(=O)NCCCCCC(=O)NO)C(=O)C12CCCC2 | 1500
* CCC[C@H]1C(=O)N([C@@H](Cc2ccc(OC)cc2)C(=O)NCCCCCC(=O)NO)C(=O)[C@@H]1CC(C)C | 530
* O=C(CCCCCNC(=O)[C@H](Cc1ccccc1)N1C(=O)CCC1=O)NO | 14000
* CC(C)C[C@H]1C(=O)N2C[C@@H]1CCCCCOc1ccc(cc1)C[C@H]2C(=O)NCCCCCC(=O)NO | 250
* CC(C)C[C@@H]1CC(=O)N([C@@H](Cc2ccccc2)C(=O)NCCCCCC(=O)NO)C1=O | 2300
* CCC[C@H]1C(=O)N([C@@H](Cc2ccccc2)C(=O)NCCCCCC(=O)NO)C(=O)[C@@H]1CC(C)C | 400

* * *

# Target or test system: Histone deacetylase
# Assay name: Concentration required to inhibit Histone Deacetylase (HDAC) from K562 erythroleukemia cells
# Assay type: cell-based, Homo sapiens
Quantity name: IC50 (nM)

- CC(C)C[C@H]1C(=O)N([C@@H](Cc2ccccc2)C(=O)NCCCCCC(=O)NO)C(=O)C12CCCC2: 66
- CC(C)C[C@@H]1CC(=O)N([C@@H](CC2CCCCC2)C(=O)NCCCCCC(=O)NO)C1=O: 640
- CC(C)C[C@@H]1CC(=O)N([C@@H](Cc2ccccc2)C(=O)NCCCCCC(=O)NO)C1=O: 99
- CC(C)C[C@H]1C(=O)N2C[C@@H]1CCCCCOc1ccc(cc1)C[C@H]2C(=O)NCCCCCC(=O)NO: 38

FYI, the data here is from ChEMBL document CHEMBL1135210.
